Measured chromatographic logP, listed per entry for reference.
assay details: LogP determination by HPLC (EEC-Directive 79/831 Annex V. A8)
Type: physicochemical
condition description: HPLC with acetonitrile/0.1% aqueous phosphoric acid gradient, gradient method
endpoint name: chromatographic logP

> print(dat)
                                    compound  quantitative.result
 1            Clc1cncnc1-c1c(Cl)nc2ncnn2c1Cl                 1.43
 2        Oc1nc2ncnn2c(O)c1-c1ncccc1C(F)(F)F                -0.23
 3  CC(C)C(C)Sc1c(-c2ncncc2Cl)c(Cl)nc2ncnn12 (centres unmarked)                 3.07
 4      FC(F)(F)c1cccnc1-c1c(Cl)nc2ncnn2c1Cl                 1.97
 5  CC(Oc1c(-c2ncncc2Cl)c(Cl)nc2ncnn12)C(F)(F)F (centres unmarked)                 2.43
 6              Oc1nc2ncnn2c(O)c1-c1ncncc1Cl                -0.23
 7      Clc1ncsc1-c1c(Cl)nc2nc(C3CC3)nn2c1Cl                 2.46
 8        Oc1nc2nc(C3CC3)nn2c(O)c1-c1scnc1Cl                  0.1
 9                              Clc1cncnc1Cl                 1.35
10         COC(=O)C(C(=O)OC)c1ncccc1C(F)(F)F                 2.05
11               COC(=O)C(C(=O)OC)c1ncncc1Cl                 1.33

Cited source for all entries: patent US20060281767A1
